apparent KD of K4 kissing-loop reporter for assorted sequences
system: K4 kissing-loop RNA reporter; assay: apparent KD of K4 kissing-loop reporter; higher = weaker reporter binding; details: Eterna round: R107; input ligand: none;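 further: bound reporter read as fluorescence of individual clusters on recovered sequencing chips by microscopy, with normalized cluster intensities fitted with a binding model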
readout-label: apparent KD of K4 kissing-loop reporter (nM)

- macromolecule-sequence: "AUGGUAUUGCGAGGAUAUCCUUCAAACGUGACACUAACGGCAGUGAUGUUGCCGGCGUCGAUCAGAGGAGAAGGCGCGGUGUUAU [Exclusion FMN B GF 23]"
  readout-label: "apparent KD of K4 kissing-loop reporter"
  experimental-result: 122
- macromolecule-sequence: "CAGGUGCUGAUGCGGUGGCCGGUGGUCGUGCGAGGACCGGUACGGCCGCCACUCGCAUGAGUGAUGUUCAUGUGUCGUCGUCGUC [whbob_EX_Tryp_A_t2]"
  readout-label: "apparent KD of K4 kissing-loop reporter"
  experimental-result: 188
- macromolecule-sequence: "GUUCUGAUGGAAACAUCGGAACAUACUGAUACCAGUAUCGAUAGAUACCCUUGGCAGCAGAAUCAGUAAUAACGAGUGAUGUUCG [Ex Theophylline A K4 2]"
  readout-label: "apparent KD of K4 kissing-loop reporter"
  experimental-result: 293
- macromolecule-sequence: "UUAUAUACGAGUGAUGUUCGUUAUUUAUCAGAGGAUAUGCUUAAAUGCAGAAGGCUGUAUUUCUAUUUGAUAUUAAAUUUUAUAA [JR_Nu3_ExcFMNA_Sub026]"
  readout-label: "apparent KD of K4 kissing-loop reporter"
  experimental-result: 66.8
- macromolecule-sequence: "UGAUUUAACUGAAGGAGCGGCAAUUGAGAAGGAAAUAUAGUGAUGUUAUAUAAGAGAGAGAGCCAGGUAGGUCGCAGAGGGAGGA [ExArgB.G]"
  readout-label: "apparent KD of K4 kissing-loop reporter"
  experimental-result: 152
- macromolecule-sequence: "UGAUAGGACAGAAGGAGCGGGAGUGAUGUUCCCAAAGGAAGGUCUAGCAAAGCUGGACCCUCCCAGGUAGGUCGCUGUCCUAUCU [ArgBX 4 #SwitchBubble #StaticStem]"
  readout-label: "apparent KD of K4 kissing-loop reporter"
  experimental-result: 124
- macromolecule-sequence: "UAUGAAGGUGGAGGAUAUUGAUUGAACCUUGGUCAGGAGUGAUGUUCCGGGAAGCCUUGGGUUCAUCGAGAAGGCCAAGGAUAGU [Extra 2]"
  readout-label: "apparent KD of K4 kissing-loop reporter"
  experimental-result: 254
- macromolecule-sequence: "CGAGUCGGUUCAGAUACCAGCCAAUUAGAGUCGAGUGAUGUUCGACAAUGAACGUCCAAAGGCCCUUGGCAGCUGGAUUGGGAAC [Same State Theophylline B GF 20]"
  readout-label: "apparent KD of K4 kissing-loop reporter"
  experimental-result: 104
- macromolecule-sequence: "AAAAUAAGCCAGUGAUGUUGGGAUCCAGAUACCAGCGACGAAAGUCGCCCUUGGCAGCUGUGGACGUACAAAAUAAGUACGUCCU"
  readout-label: "apparent KD of K4 kissing-loop reporter"
  experimental-result: 1040
- macromolecule-sequence: "UGGAGUUGACGAAAAGUCAACUCCUGAGAUACCAGUGACGAAAGUCACCCUUGGCAGCUCACUGCCAGUGAUGUUGGAAAAUAAA [#OpenEnded 1]"
  readout-label: "apparent KD of K4 kissing-loop reporter"
  experimental-result: 238
- macromolecule-sequence: "GCCAGUGCGCGAAGGAGCGCCGUGACAGGUUACUGCCUUGGGCAGUGAUGUUGCUCAAUCUGGCAGGUAGGUCGCGUGCACUGGC"
  readout-label: "apparent KD of K4 kissing-loop reporter"
  experimental-result: 166
- macromolecule-sequence: "AAAUAAAUCAGAGGAUAUUCUUCCCACGUCGAAGUACCGUGCUUGAUGGAGUGAUGUUCGAUCAGAGAAGAAGGCUGAUAAAUAA [Same State FMN B GF 19]"
  readout-label: "apparent KD of K4 kissing-loop reporter"
  experimental-result: 917
- macromolecule-sequence: "GAAGGUCAAAGACCUUCGUGCACAUCUGAUACCAGUCGCGAAAGCGACCCUUGGCAGCAGGGCAGUGAUGUUGCCAGUGCACAAA [Omei KL Theo A SS A v4]"
  readout-label: "apparent KD of K4 kissing-loop reporter"
  experimental-result: 273
- macromolecule-sequence: "GCCUAGCAGCGAAGGAGCGCCAGGAGAAGAAAUGGAGAGAGUUGAGUGAUGUUCAAAUGGUGGCAGGUAGGUCGCGCUGCUAGGC [#08 K4 Arginine B Same State]"
  readout-label: "apparent KD of K4 kissing-loop reporter"
  experimental-result: 432
- macromolecule-sequence: "GAACAUAGUAAAGGAUAUUCCUGCCUCGCGCGAUUGAUUAGUGAUGUUGACGAUAUCGCUUUGAGGGAAGAAGGUUAACAAGUCA [theeternabot_exclusion_KL_FMN_B_4]"
  readout-label: "apparent KD of K4 kissing-loop reporter"
  experimental-result: 678
- macromolecule-sequence: "AUUAAUAUCACGGCCGCCACUGAAUAUUGUUUUUAUAUUUAGAAAUCUUGCCAGUGAUGUUGGAUCAGGACCGGGUGAGUUUAUA [JR_SSTryptoB_Sub006]"
  readout-label: "apparent KD of K4 kissing-loop reporter"
  experimental-result: 463
- macromolecule-sequence: "AAAUAUUCGAGUGAUGUUCGAUAAAUUUCAGAGGAUAUGCUUAAAAGCAGAAGGCUGUAUUUCUAUUUGUUAUUAAAUUUUAUAA [JR_ExcFMNA_Sub002]"
  readout-label: "apparent KD of K4 kissing-loop reporter"
  experimental-result: 91.1
- macromolecule-sequence: "GUUACGCAUGGAAGGAGCGCACUCCGAUUGGGCGACACAGUGAUGUUGUGGUUCGUUCGAAUGCAGGUAGGUCGCCAUGUGUAAC [Ex Arginine B K4 20]"
  readout-label: "apparent KD of K4 kissing-loop reporter"
  experimental-result: 140

Data provenance is the supplement of paper PMC9170038.
